# MEASUREMENT_PROTOCOL: Plasma stability (human)
# Assay type: in vitro ADME
# ASSAY_CONTEXT: pooled plasma, read-out: half-life in human plasma
Would you kindly list half-life at 1 μM for each of these compounds?

Q) Fill in reported half-life at 1 μM for this entry: C=CC(=O)NCCCC[C@H](NC(=O)Cc1ccccc1)C(=O)N1CCN(c2cccc(C)n2)CC1 [compound 2]
A) > 24 h

Q) Fill in reported half-life at 1 μM for this entry: C=CC(=O)NCCCC[C@H](NC(=O)OCc1ccccc1)C(=O)N1CCN(c2ccccc2Cl)CC1 [compound 1]
A) > 24 h

---

# TESTED_ON: human TG2 (Homo sapiens)
# Sequence (P21980 whole entry): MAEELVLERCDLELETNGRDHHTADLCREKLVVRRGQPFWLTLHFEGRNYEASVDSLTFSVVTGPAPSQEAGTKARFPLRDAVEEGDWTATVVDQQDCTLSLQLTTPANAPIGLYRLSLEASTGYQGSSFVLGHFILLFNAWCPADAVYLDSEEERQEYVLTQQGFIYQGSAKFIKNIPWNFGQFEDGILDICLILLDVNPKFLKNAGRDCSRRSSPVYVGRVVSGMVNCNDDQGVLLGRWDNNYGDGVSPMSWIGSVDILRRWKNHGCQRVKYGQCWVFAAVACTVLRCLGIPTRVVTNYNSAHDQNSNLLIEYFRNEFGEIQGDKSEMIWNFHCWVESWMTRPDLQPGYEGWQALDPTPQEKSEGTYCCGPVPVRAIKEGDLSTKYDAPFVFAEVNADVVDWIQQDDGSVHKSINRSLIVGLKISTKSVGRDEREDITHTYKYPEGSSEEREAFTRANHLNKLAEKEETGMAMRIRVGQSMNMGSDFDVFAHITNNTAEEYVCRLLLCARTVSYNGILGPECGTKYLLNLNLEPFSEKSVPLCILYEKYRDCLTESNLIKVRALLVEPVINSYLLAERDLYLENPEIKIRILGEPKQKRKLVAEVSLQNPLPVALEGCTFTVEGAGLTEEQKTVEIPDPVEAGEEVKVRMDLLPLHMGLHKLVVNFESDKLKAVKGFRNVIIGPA
# MEASUREMENT_PROTOCOL: fluorescent screening assay for human TG2
# Format: biochemical
# ASSAY_CONTEXT: Table 7; 20 nM TG2, 37° C.; read-out: IC50
# Description: The fluorescent screening assay for human TG2 was performed as described herein: Assay conditions were 20 nM TG2, 8 μM N,N-dimethylated Casein (NMC) and 16 μM K×D (used for all transglutaminase assays) in 25 mM Hepes, pH 7.4, 250 mM NaCl, 2 mM MgCl2, 0.5 mM CaCl2, 0.2 mM DTT, 0.05% Pluronic F-127 at 37° C. […]
pIC50: −log10 of the molar value.
RECORDED_ENDPOINT: pIC50

Q) Please look at C=CC(=O)NCCCC[C@H](NC(=O)OCc1ccccc1)C(=O)N1CCN(c2ccc(C(F)(F)F)cn2)CC1 and tell me its recorded pIC50 on human TG2 (Homo sapiens).
A) 6.00 to 7.00

Q) Please look at C=CC(=O)NCCCC[C@H](NC(=O)OCc1ccccc1)C(=O)O and tell me its recorded pIC50 on human TG2 (Homo sapiens).
A) 4.00 to 6.00

Q) Please look at C=CC(=O)NCCCC[C@H](NC(=O)OCC1c2ccccc2-c2ccccc21)C(=O)O and tell me its recorded pIC50 on human TG2 (Homo sapiens).
A) 4.00 to 6.00

Q) Please look at C=CC(=O)NCCCC[C@H](NC(=O)OCc1ccccc1Cl)C(=O)O and tell me its recorded pIC50 on human TG2 (Homo sapiens).
A) 4.00 to 6.00

Q) Please look at C=CC(=O)NCCCC[C@H](NC(=O)OCc1ccccc1)C(=O)N1Cc2ccccc2C1 and tell me its recorded pIC50 on human TG2 (Homo sapiens).
A) 6.00 to 7.00

Q) Please look at C=CC(=O)NCCCC[C@H](NC(=O)c1ccc2ccccc2c1)C(=O)N1CCN(c2cccc(C)n2)CC1 and tell me its recorded pIC50 on human TG2 (Homo sapiens).
A) 4.00 to 6.00

Q) Please look at C=CC(=O)NCCCC[C@H](NC(=O)OCc1ccccc1)C(=O)N1CCN(c2ncccc2C)CC1 and tell me its recorded pIC50 on human TG2 (Homo sapiens).
A) 6.00 to 7.00

Q) Please look at C=CC(=O)N1CCC(CC(NC(=O)OC(C)(C)C)C(=O)O)CC1 (centres unmarked) and tell me its recorded pIC50 on human TG2 (Homo sapiens).
A) 4.00 to 6.00

Q) Please look at C=CC(=O)NCCCC[C@H](NC(=O)OC(C)(C)C)C(=O)N1CCN(c2cccc(C)n2)CC1 and tell me its recorded pIC50 on human TG2 (Homo sapiens).
A) 6.00 to 7.00

Q) Please look at C=CC(=O)NCCCC[C@H](NC(=O)OCc1ccc([N+](=O)[O-])cc1)C(=O)O and tell me its recorded pIC50 on human TG2 (Homo sapiens).
A) 4.00 to 6.00

Q) Please look at C=CC(=O)NCCCC[C@H](NC(C)=O)C(=O)N1CCN(c2cccc(C)n2)CC1 and tell me its recorded pIC50 on human TG2 (Homo sapiens).
A) 6.00 to 7.00

Q) Please look at C=CC(=O)NCCCC[C@H](NC(=O)Cc1ccccc1)C(=O)N1CCN(c2cccc(C)n2)CC1 [compound 2] and tell me its recorded pIC50 on human TG2 (Homo sapiens).
A) > 7.00

Q) Please look at C=CC(=O)NCCCC[C@H](NC(=O)OCc1ccccc1)C(=O)N1CCN(C(=O)N2CCOCC2)CC1 and tell me its recorded pIC50 on human TG2 (Homo sapiens).
A) 6.00 to 7.00

Q) Please look at C=CC(=O)NCCCC[C@H](NC(=O)OCc1ccccc1)C(=O)N1CCCCC1 and tell me its recorded pIC50 on human TG2 (Homo sapiens).
A) 4.00 to 6.00

Q) Please look at C=CC(=O)NCCCC[C@H](NC(=O)OCc1ccccc1)C(=O)N1CCCCCC1 and tell me its recorded pIC50 on human TG2 (Homo sapiens).
A) 6.00 to 7.00

Q) Please look at C=CC(=O)NCCCC[C@@H](NC(=O)OCc1ccccc1)C(=O)O and tell me its recorded pIC50 on human TG2 (Homo sapiens).
A) 4.00 to 6.00

Q) Please look at C=CC(=O)NCCCC[C@H](NC(=O)OCc1ccccc1)C(=O)N(CC)CC and tell me its recorded pIC50 on human TG2 (Homo sapiens).
A) 4.00 to 6.00

Q) Please look at C=CC(=O)NCCCC[C@H](NC(=O)OC)C(=O)O and tell me its recorded pIC50 on human TG2 (Homo sapiens).
A) 4.00 to 6.00

Q) Please look at C=CC(=O)NCCCC[C@H](NC(=O)OCc1ccccc1)C(=O)N1CCN(c2cccc(C)n2)CC1 and tell me its recorded pIC50 on human TG2 (Homo sapiens).
A) > 7.00

Q) Please look at C=CC(=O)NCCCC[C@H](NC(=O)OCc1ccccc1)C(=O)N1CCN(C(=O)OC(C)(C)C)CC1 and tell me its recorded pIC50 on human TG2 (Homo sapiens).
A) 6.00 to 7.00

Q) Please look at C=CC(=O)NCCCC[C@H](NC(=O)OCc1cccc(C(F)(F)F)c1)C(=O)O and tell me its recorded pIC50 on human TG2 (Homo sapiens).
A) 4.00 to 6.00

Q) Please look at C=CC(=O)NCCCC[C@H](NC(=O)OCc1ccccc1)C(=O)N1CCC(F)(F)CC1 and tell me its recorded pIC50 on human TG2 (Homo sapiens).
A) 6.00 to 7.00

Q) Please look at C=CC(=O)NCCC1C[C@@H](C(=O)OC)N(C(=O)OC(C)(C)C)C1 (some centres unmarked) and tell me its recorded pIC50 on human TG2 (Homo sapiens).
A) 4.00 to 6.00

Q) Please look at C=CC(=O)NCCCC[C@H](NC(=O)OCc1ccccc1)C(=O)N1CCN(c2nccs2)CC1 and tell me its recorded pIC50 on human TG2 (Homo sapiens).
A) 6.00 to 7.00

Q) Please look at C=CC(=O)NCCCC[C@H](NC(=O)OCc1ccccc1)C(=O)NC1C2CC3CC(C2)CC1C3 (some centres unmarked) and tell me its recorded pIC50 on human TG2 (Homo sapiens).
A) 4.00 to 6.00

Q) Please look at C=CC(=O)NCCCC[C@H](NC(=O)OCc1ccc2ccccc2c1)C(=O)O and tell me its recorded pIC50 on human TG2 (Homo sapiens).
A) 4.00 to 6.00

Q) Please look at C=CC(=O)NCCCC[C@H](NC(=O)OCc1ccc(F)cc1)C(=O)O and tell me its recorded pIC50 on human TG2 (Homo sapiens).
A) 4.00 to 6.00

Q) Please look at C=CC(=O)NCCCC[C@H](NC(=O)OCc1ccccc1)C(=O)N1CCN(C(=O)C2CC2)CC1 and tell me its recorded pIC50 on human TG2 (Homo sapiens).
A) 6.00 to 7.00

Q) Please look at C=CC(=O)NCCCC[C@H](NC(=O)OCc1ccc(F)cc1Cl)C(=O)O and tell me its recorded pIC50 on human TG2 (Homo sapiens).
A) 4.00 to 6.00

Q) Please look at C=CC(=O)NCCCC[C@H](NC(=O)c1ccccc1)C(=O)N1CCN(c2cccc(C)n2)CC1 and tell me its recorded pIC50 on human TG2 (Homo sapiens).
A) 6.00 to 7.00

Q) Please look at C=CC(=O)NCCCC[C@H](NC(=O)OCc1ccccc1)C(=O)N1CCN(c2ccccn2)CC1 and tell me its recorded pIC50 on human TG2 (Homo sapiens).
A) 6.00 to 7.00

Q) Please look at C=CC(=O)NCCCC[C@H](NC(=O)OCc1ccccc1)C(=O)N1CCC1 and tell me its recorded pIC50 on human TG2 (Homo sapiens).
A) 4.00 to 6.00

Q) Please look at C=CC(=O)NCCCC[C@H](NC(=O)OCc1ccccc1)C(=O)N1CCC(c2ccccc2)CC1 and tell me its recorded pIC50 on human TG2 (Homo sapiens).
A) > 7.00

Q) Please look at C=CC(=O)NCCCC[C@H](NC(=O)OCc1ccccc1)C(=O)N1CCN(c2ccc3ccccc3c2)CC1 and tell me its recorded pIC50 on human TG2 (Homo sapiens).
A) 6.00 to 7.00

Q) Please look at C=CC(=O)NCCCC[C@H](NC(=O)OCc1ccccc1C(F)(F)F)C(=O)O and tell me its recorded pIC50 on human TG2 (Homo sapiens).
A) 4.00 to 6.00

Q) Please look at C=CC(=O)NCCCC[C@H](NC(=O)OCc1ccccc1)C(=O)N1CCN(c2ccccc2Cl)CC1 [compound 1] and tell me its recorded pIC50 on human TG2 (Homo sapiens).
A) > 7.00

Q) Please look at C=CC(=O)NCCCC[C@H](NC(=O)OCc1ccccc1)C(=O)N1CCOCC1 and tell me its recorded pIC50 on human TG2 (Homo sapiens).
A) 6.00 to 7.00

Q) Please look at C=CC(=O)NCCCC[C@H](NC(=O)OCc1ccccc1)C(=O)N1CCN(c2ncccc2C(F)(F)F)CC1 and tell me its recorded pIC50 on human TG2 (Homo sapiens).
A) 6.00 to 7.00
